Assign TGI to each entry below.
# Test system: NCI-H226 lung
# ASSAY OVERVIEW: NCI tumour cell line growth inhibition, 48 h

Example cases with answers are listed next.
| MOLECULE | TGI |
| --- | --- |
| Cc1ccc(N=NC(=O)NNc2ccc(C)c([N+](=O)[O-])c2)cc1[N+](=O)[O-] | > 100 µM |
| CC1CCC(C(C)C2C(O)CC3C4CC=C5CC(O)CCC5(C)C4CCC32C)NC1 (stereo unspecified) | > 100 µM |
| O=C1Nc2ccccc2S/C1=C\c1ccc(C(F)(F)F)cc1 | > 100 µM |
| CC(C)(C)C1=NC(=S)SC2=NC(=O)C3(NN21)c1ccccc1-c1ccccc13 | > 10 µM |

Provide TGI values for the following items, in order.
1. CSc1nc(-c2ccccc2)c(C#N)c(=O)[nH]1
2. Cc1cc(C)c2c(=O)cc(-c3cccc(Cl)c3)[nH]c2n1
3. C=C1[C@@H](OC(C)=O)[C@H]2[C@@H](OC(C)=O)[C@@](C)(OC(C)=O)C[C@]2(OC(C)=O)C(=O)[C@@H](C)/C=C/C(C)(C)C(=O)C[C@H]1OC(C)=O
4. CN=C(NC#N)N(Cc1ccccc1)Cc1ccccc1

A:
1: > 100 µM; 2: > 100 µM; 3: > 100 µM; 4: > 100 µM

Provide TGI values for the following items, in order.
1. Cc1ccc(NC(=O)CC/C(CC(=O)C(C)(C)C)=N/Nc2nnc(C)n2N)cc1C
2. N#Cc1nc(-c2cccnc2)oc1N
3. COc1c(-c2nc3nc(N4CCN(C)CC4)ccc3[nH]2)cc(OC)c2c1nc(CO)n2C
4. O=C(COc1ccc(OCC(=O)N2C(=O)CN(c3ccc(Cl)cc3)C2=S)cc1)N1C(=O)CN(c2ccc(Cl)cc2)C1=S
5. Cc1cc([N+](=O)[O-])c(C)c2c1[nH]c1ccc(O)cc12
6. C#CC[N+](CCO)(CCO)CCCCCCCCCCCCCCCCCC

A:
> 100 µM
> 100 µM
> 100 µM
90.1 µM
> 100 µM
29.2 µM

Provide TGI values for the following items, in order.
1. O=[N+]([O-])c1ccc2nc3n(c2c1)C(c1c(F)cccc1F)SC3 (stereo unspecified)
2. C/C=C(/C(=C/C)c1ccc(O)cc1)c1ccc(O)cc1
3. O=C(Nc1cccc(-n2cc(-c3ccncc3)c(-c3ccc(Cl)c(O)c3)n2)c1)Nc1cccc(C(F)(F)F)c1
4. COC(=O)Cc1ccc(Oc2nc3ccccc3nc2-c2cccs2)cc1
5. C=CCCC(=O)N1CCC(C(=O)OCC)C1=O (stereo unspecified)
6. CC(=O)/C=C/CCC(=O)/C=C/C(=O)OC(CCC(=O)/C=C/C(=O)O)CC(C)=O (stereo unspecified)
7. COC(=O)c1sc(=O)n(-c2ccccc2)c1SCc1ccccc1

A:
> 100 µM
47 µM
> 32.5 µM
99.8 µM
> 100 µM
> 100 µM
> 100 µM

###

# Tested on: SK-MEL-28 melanoma
# ASSAY OVERVIEW: NCI tumour cell line growth inhibition, 48 h; in the data active = GI50 below about 0.43 µM; inactive = the rest
Just give me one of these, please: 1 for active, -1 for inactive

Q: Returns: the outcome recorded for CN(CCO)C1CCN(c2ccc(Nc3ncc4c5ccnc(F)c5n(C5CCCC5)c4n3)nc2)CC1 in this assay.
A: -1

Q: Returns: the outcome recorded for N#Cc1c(-c2ccccc2)n([O-])c2ccccc2[n+]1=O in this assay.
A: -1

Q: Returns: the outcome recorded for CCSc1ccc2c(c1)N(CCCN1CCN(C)CC1)c1ccccc1S2 in this assay.
A: -1

Q: Returns: the outcome recorded for Nc1nc2cc(-c3ccc4ncc(C(=O)N5CCOCC5)n4c3)ccc2o1 in this assay.
A: -1

Q: Returns: the outcome recorded for CC(=O)OCC1OC(OC2CCCC[Si](c3ccccc3)(c3ccccc3)O2)C(OC(C)=O)C(OC(C)=O)C1OC(C)=O (centres undefined) in this assay.
A: -1

###

# System: SF-295 CNS
# ASSAY OVERVIEW: NCI tumour cell line growth inhibition, 48 h
OBSERVATION TYPE: TGI (µM)
Numbers only, in µM.

Provide TGI values for the following items, in order.
1. C/C=C(/C(=C/C)c1ccc(O)cc1)c1ccc(O)cc1
2. CCC(/C=C(C)/C=C/C(=O)c1c(O)c(-c2ccc(O)cc2)c[nH]c1=O)CO (stereo not given)

A:
8.11
30.9

###

Assign TGI to each entry below.
# Tested on: SNB-75 CNS
# ASSAY OVERVIEW: NCI tumour cell line growth inhibition, 48 h

| COMPOUND | RESULT |
| --- | --- |
| CSc1nc(-c2ccccc2)c(C#N)c(=O)[nH]1 | > 100 µM |
| CCOC(=O)c1ccc(NC(=O)Nc2nccs2)cc1 | > 48.9 µM |
| COc1ccc(/C=N/Nc2nc(N)nc(N3CCCC3)c2C#N)cc1 | 51.8 µM |

Provide TGI values for the following items, in order.
1. CN1CCN(C(=S)N(C(=O)c2cccs2)c2ccccc2)CC1
2. N#CCCN(CCNc1ccccc1)C(=O)Nc1ccc(NC(=O)N(CCC#N)CCNc2ccccc2)cc1

A:
["> 100 µM", "72 µM"]

Provide TGI values for the following items, in order.
1. Cc1noc(NS(=O)(=O)c2ccc(NC(=O)c3ccc4nc5ccccc5c(Nc5ccc(S(=O)(=O)Nc6onc(C)c6C)cc5)c4c3)cc2)c1C
2. COC(=O)c1sc(=O)n(-c2ccccc2)c1SCc1ccccc1
3. Cc1cccc(NC(=S)Nc2ccc(Cl)cc2)n1
4. Cc1[nH]c2ncn(Nc3ccccc3)c(=N)c2c1Cc1ccccc1

A:
1. > 100 µM
2. > 100 µM
3. > 100 µM
4. > 100 µM

Q: Tell us which TGI value is on record for CC(=O)OCC1OC(NC(=S)CCSc2nc3ccccc3c(=O)n2-c2ccccc2)C(OC(C)=O)C(OC(C)=O)C1OC(C)=O (stereo not given)
A: 60.7 µM

###

# Tested on: OVCAR-5 ovarian
# ASSAY OVERVIEW: NCI tumour cell line growth inhibition, 48 h
Assign TGI to each entry below.

| COMPOUND | TGI |
| --- | --- |
| CCCCN(CCCC)CC(O)c1ccc(OCc2ccccc2)c2ccccc12 (configuration not stated) | 16.2 µM |
| COc1ccc(/C=N/Nc2nc(N)nc(N3CCCC3)c2C#N)cc1 | 47 µM |
| C[C@]12CCc3nonc3C1CC[C@@H]1C2CC[C@]2(C)C(=O)/C(=N\O)CC12 (some centres not stated) | > 100 µM |
| COC(=O)C12C3C4C1C1C2C3C41C(=O)O (configuration not stated) | > 100 µM |
| CC(SC(=S)Nc1cccc(F)c1)C(=O)O (configuration not stated) | > 100 µM |
| CCOP(=O)(/C=C/n1ccc(=O)[nH]c1=O)OCC | > 100 µM |

Provide TGI values for the following items, in order.
1. COc1ccc2c(c1)O[C@@H]1[C@@H](OC3OC(CO)C(O)C(O)C3O)Oc3cc(OC)c(OC)cc3[C@]1(O)C2=O (some centres not stated)
2. CC(C)(Oc1ccc(Cl)cc1)C(=O)NC1C2CC3CC1CC(NS(C)(=O)=O)(C3)C2 (configuration not stated)
3. C/C=C(/C(=C/C)c1ccc(O)cc1)c1ccc(O)cc1
4. Nc1nc2cc(-c3ccc4ncc(C(=O)N5CCOCC5)n4c3)ccc2o1
5. O[C@H]1C=C2[C@H](C[C@@H]1O)CN1C[C@H]2c2cc3c(cc21)OCO3
6. COc1cccc(-n2ncc3c(N/N=C/c4ccc(F)cc4)ncnc32)c1
7. CCCCC/C=C/C(=O)CCc1ccc(O)c(OC)c1
8. COc1ccc(-c2cnoc2-c2ccc(OC)cc2O)cc1

A:
> 100 µM
> 100 µM
23.2 µM
> 100 µM
> 100 µM
> 25 µM
32.1 µM
> 100 µM

Provide TGI values for the following items, in order.
1. CC1(C)CC(=O)C(C(=O)C(=O)NC2=C(Cl)C(=O)c3ccccc3C2=O)C(=O)C1
2. CCCCCOC(=O)C(=O)Nc1n[nH]nc1C(N)=O
3. C=CCCC(=O)N1CCC(C(=O)OCC)C1=O (configuration not stated)

A:
1: > 100 µM; 2: > 100 µM; 3: > 100 µM

Provide TGI values for the following items, in order.
1. COC(=O)C(Cc1c[nH]c2ccccc12)NC(=O)C(Cc1c[nH]c2ccccc12)NC(=O)OCc1ccccc1 (configuration not stated)
2. OCCCNCC(O)c1ccc(OCc2ccccc2)c(OCc2ccccc2)c1 (configuration not stated)
3. N#Cc1c(-c2ccccc2)n([O-])c2ccccc2[n+]1=O

A:
1. 31.5 µM
2. 29.5 µM
3. 74.2 µM

Provide TGI values for the following items, in order.
1. COc1cc(-c2cncn2-c2ccc(-c3nc4ccc(F)cc4s3)cc2)ccc1F
2. CCCCCCCCNC(=O)C1=C(C)NC(C)=C(C(=O)NCCCCCCCC)C1

A:
1: > 100 µM; 2: > 100 µM
